assay details: protein stability index of a GFP-peptide fusion (yeast GPS) (PSI 1-4); higher = more stable; sorted into four equal gates, so the index is relative within each strain
measurement setup: ubr1∆
measure name: protein stability index
Answers are plain numbers.

Please supply protein stability index for each of the following items, keeping them in order.
1. RILSTLDRELLKPSMSV [RPT3]
2. NALWILVDLVSHFSPDI [ITC1]
3. SDDIAENDNLDNVSKNA [YCG1]
4. NPFTSATSSTNANAGLF [YOR098C/NUP1]
5. ITLLTRQRELLIAHQRS [GRR1]

Result:
1. 2.57
2. 1.95
3. 3.23
4. 3.31
5. 1.89
